- System: SK-MEL-2 melanoma
- EXPERIMENTAL_PROTOCOL: NCI tumour cell line growth inhibition, 48 h
MEASURE_NAME: GI50

• CC[N+](CCCCCCCCCC[N+](CC)(c1ccccn1)c1ccccn1)(c1ccccn1)c1ccccn1 = 1.88 µM
• O=C(Oc1ccc(O)c2c(=O)n3c(cc12)[nH]c1ccccc13)c1ccccc1 = 21 µM
• c1ccc2c(c1)[I+]c1ccccc1-2 = > 50 µM
• S=C(Nc1ccc(-c2nc3ccccc3[nH]2)cc1)NC1CCCCC1 = 36.5 µM
• C[CH2][Sn]1([CH2]C)[O]C(=O)[O][Sn]([CH2]C)([CH2]C)[O]1 = 15.8 µM
• CCCCNc1nc(NC(C)(C)C)nc(NC(C)(C)C)n1 = 15.4 µM
